tested on: U-251; assay: NCI tumour cell line growth inhibition, 48 h
Active and inactive are the calls of the source. No stated cut-off is given here; in the data, active = GI50 up to about 1.1 µM and inactive = higher. Starred links: 1 amine or outer side, 2 acyl side, 3 side chain; linkers in the order of their positions; H or OH if unused. Non-standard residues stand in square brackets, D forms with d. Residues, ends and D or L forms follow the SMILES beside them. *: point of attachment. X34 = CC(=O)N(C)SCC(N[*:1])C(=O)[*:2]; Cbz = O=C(OCc1ccccc1)*; Bn = c1ccc(C*)cc1; For = O=C*
recorded-metric: GI50

>>> value("CCCCN1C(=O)CC2[C@@H]3CCc4cc(OC)ccc4C3CC[C@]2(C)C1=O (some centres not stated)")
"> 10 µM (inactive)"
>>> value("C/C(=N\\NC(=S)NNC(=S)N(C)c1ccccc1)c1ccccn1")
"1.11 µM (active)"
>>> value("N=C(N)C1CN(CCCCCCCCCCN2CC(C(=N)N)C(O)=NC2=O)C(=O)N=C1O (configuration not stated)")
"> 10 µM (inactive)"
>>> value("COC(=O)C1Cc2c(n(C)c3ccccc23)C(c2ccccc2)N1 (configuration not stated)")
"48 µM (inactive)"
>>> value("COCc1cc2c(s1)C(=O)C1=C(C2=O)C2(C=C(Br)C(=O)C(Br)=C2)CCN1")
"11.4 µM (inactive)"
>>> value("Cc1cccc(-c2cccc(COCc3cccc(-c4cccc(CO)n4)n3)n2)n1")
"> 50 µM (inactive)"
>>> value("CCOP(=O)(OCC)C(C)(CC)NC1=NC(C(F)(F)F)(C(F)(F)F)NC(=O)N1 (configuration not stated)")
"> 100 µM (inactive)"
>>> value("COc1cc(/C=C\\c2ccc(C)cc2)cc(OC)c1OC")
"0.00441 µM (active)"
>>> value("COc1cc2c(cc1[N+](=O)[O-])C(=O)C(Br)(Br)CCC2")
"2.23 µM (inactive)"
>>> value("CCN(CC)CCNc1ccc2ncn3c4ccc(O)cc4c(=O)c1c23")
"0.193 µM (active)"
>>> value("COc1ccc2nc3ccc(OC)cc3c(SCc3ccc([N+](=O)[O-])cc3)c2c1")
"> 10 µM (inactive)"
>>> value("CN(C)c1nncc2[nH]nnc12")
"> 100 µM (inactive)"
>>> value("O=C(c1ccccc1)N1CCN2CCN=C(c3ccccc3)C21c1ccccc1 (configuration not stated)")
"> 100 µM (inactive)"
>>> value("O=C1CS[C@@](CC(c2ccc(Cl)cc2)c2ccc(Cl)cc2)(c2ccc(Cl)cc2)N1")
"10.2 µM (inactive)"
>>> value("O=C1/C(=C/c2ccc(Cl)cc2)CNC/C1=C\\c1ccc(Cl)cc1")
"0.782 µM (active)"
>>> value("CC1OC(OC2C(O)COC(OC3C(C)OC(OC4C(OC(=O)[C@]56CCC(C)(C)C[C@@H]5C5=CCC7[C@@]8(C)C[C@H](O)[C@H](OC9OC(CO)C(O)C(O)C9O)[C@@](C)(CO)[C@@H]8CC[C@@]7(C)[C@]5(C)CC6)OCC(O)C4O)C(O)C3O)C2O)C(O)C(O)C1O (some centres not stated)")
"23.9 µM (inactive)"
>>> value("Cc1cc(C)c(S(=O)(=O)N2CCN(S(=O)(=O)c3c(C)cc(C)cc3C)OCCCCCO2)c(C)c1")
"> 100 µM (inactive)"
>>> value("CCCC(=O)Nc1ccc2c(c1)CN1C(=O)c3ccccc3C1=N2")
"> 100 µM (inactive)"
>>> value("O/N=C1/C(=C/c2ccc3c(c2)OCO3)CCCC1C(NO)c1ccc2c(c1)OCO2 (configuration not stated)")
"20.8 µM (inactive)"
>>> value("CC(=O)N(C)SCC(NC(=O)C(Cc1ccccc1)NC(=O)OCc1ccccc1)C(=O)NC(Cc1ccccc1)C(=O)NC(Cc1cn(C=O)c2ccccc12)C(=O)NC(CCCCNC(=O)OCc1ccccc1)C(=O)NC(C(=O)NC(CSN(C)C(C)=O)C(=O)NC(C(N)=O)C(C)OCc1ccccc1)C(C)OCc1ccccc1 (configuration not stated) (Cbz-F[X34]FW(For)K(Cbz)T(Bn)[X34]T(Bn)-NH2; configuration not given here)")
"32.2 µM (inactive)"
>>> value("O=C1/C(=C/c2ccccc2)CCCc2ccccc21")
"15.7 µM (inactive)"
>>> value("CC1CC2C3CC(F)C4=CC(=O)C=CC4(C)C3(F)C(O)CC2(C)C1(O)C(=O)COC(=O)C(C)(C)C (configuration not stated)")
"> 100 µM (inactive)"
>>> value("Cc1cc2ccc(N)nc2nc1O")
"99.1 µM (inactive)"
>>> value("Cc1c2n(c(=O)[nH]c1=O)C1OC(CO)C(O2)C1N=[N+]=[N-] (configuration not stated)")
"> 100 µM (inactive)"
>>> value("CCn1c(SC(C)C(=O)c2c(C)n(C)n(-c3ccccc3)c2=O)nc2ccccc2c1=O (configuration not stated)")
"> 100 µM (inactive)"
>>> value("O=[N+]([O-])c1cccc(C2=NOC(C3CCCCC3)C2)c1 (configuration not stated)")
"> 100 µM (inactive)"
>>> value("CC1(C)OC2CN(C(=O)OCc3ccccc3)C(CO)C2O1 (configuration not stated)")
"> 100 µM (inactive)"
>>> value("CN(C)c1n/c(=N/c2ccc3c(c2)OCO3)ss1")
"37.6 µM (inactive)"
>>> value("CC(C)(C)[C@H]1CCC2(OCCO2)[C@](O)(CCCO)C1")
"> 100 µM (inactive)"
>>> value("CC(=O)OC[C@@H](OC(C)=O)[C@@H](OC(C)=O)[C@H]1OC[C@@H]2C[C@H]([C@H]1OC(C)=O)N(Cc1ccccc1)O2")
"> 100 µM (inactive)"
>>> value("O=C1c2cc([N+](=O)[O-])sc2C(=O)c2ccsc21")
"0.203 µM (active)"
>>> value("CCC1(O)CC2CC(=O)OC2C1O (configuration not stated)")
"> 100 µM (inactive)"
>>> value("O=c1c2c(c1=O)-c1ccccc1CN2")
"> 100 µM (inactive)"
>>> value("C[N+](C)(C)CC1CCCC(C[N+](C)(C)C)C1=NO (configuration not stated)")
"> 100 µM (inactive)"
>>> value("NP1(Oc2ccc(F)cc2)=NP(N)(Oc2ccc(F)cc2)=NP(Oc2ccc(F)cc2)(Oc2ccc(F)cc2)=N1 (configuration not stated)")
"4.78 µM (inactive)"
>>> value("COc1ccc(NC(=O)CC2SC(Nc3ccc(Cl)cc3C)=NC2=O)c([N+](=O)[O-])c1 (configuration not stated)")
"> 100 µM (inactive)"
>>> value("COc1ccc2nc3c([N+](=O)[O-])ccc4c3c(c2c1)N(CCCN(C)C)C(=S)N4CCCN(C)C")
"6.37 µM (inactive)"

Where do the numbers come from? From ChEMBL document CHEMBL1201862.
